assay-details: Effect of a single 2 g dose of SYM-1219 on the plasma pharmacokinetics of EE2 and NET in healthy female subjects
Assay type: in vivo, human
condition-summary: female, human, plasma, Group B1 Period 2: EE2/NET followed by SYM-1219 2 grams on Day 1; read-out: NET Cmax, Geometric LSMeans
attribute-measured: Cmax (ng/mL)
Please reply with the bare figure in ng/mL and do not write the unit itself.

C#C[C@]1(O)CC[C@H]2[C@@H]3CCC4=CC(=O)CC[C@@H]4[C@H]3CC[C@@]21C yielded Cmax of 9.16

====

assay-details: Single oral dose pharmacokinetics (plasma and urine) of SYM-1219 microgranule formulation in fasted healthy female subjects
condition-summary: female, human, plasma, po, 1 g, Cmax, Median; 1 gram single oral dose; fasted; N = 14
attribute-measured: Cmax
Answer shape: numeric part, then the unit.

Cc1ncc([N+](=O)[O-])n1CC(C)O (stereo not shown) yielded Cmax of 22800 ng/mL
